The reported measurements were obtained from paper PMC6514996.

Recorded viability at 24 h, 500 µg/mL, one value per entry.
Assay: Cytotoxicity against L929 cells, MTT cell viability assay (ISO 10993-5:2009(E))
Assay type: cell-based
Conditions: mouse, L929 mouse fibroblast cells, 500.00 µg/mL, read-out: viability of L929 cells (% of viable cells)
I only need the number, in %, no unit after it.

Worked examples, 4 compounds total:
- smiles_data: "Cc1nc[nH]c1C(=O)NNC(=S)Nc1cccc(Cl)c1"
  viability at 24 h, 500 µg/mL / %: 30.2
- smiles_data: "Cc1nc[nH]c1C(=O)NNC(=S)Nc1ccccc1Br"
  viability at 24 h, 500 µg/mL / %: 47.1
- smiles_data: "Cc1nc[nH]c1C(=O)NNC(=S)Nc1ccc(Br)cc1"
  viability at 24 h, 500 µg/mL / %: 42.1
- smiles_data: "Cc1nc[nH]c1C(=O)NNC(=S)Nc1cccc(I)c1"
  viability at 24 h, 500 µg/mL / %: 8.53

Kindly consider the entry below.
I would be grateful if you could share the reported viability at 24 h, 500 µg/mL for `Cc1nc[nH]c1C(=O)NNC(=S)Nc1ccc(I)cc1` .
16.3

###

// reported chromatographic logP per item
Assay: Lipophilicity by HPLC (logkw extrapolation, OECD guideline)
Assay type: physicochemical
Conditions: Phenomenex Synergi 4 µm Polar-RP column, methanol:water, calibration with seven standards
Response field accepts a number only; no unit should be typed.

Reference set, count: 2
- molecule: "Cc1nc[nH]c1C(=O)NNC(=S)Nc1ccccc1I [Compound 14]"
  chromatographic logP: 3.23
- molecule: "Cc1nc[nH]c1C(=O)NNC(=S)Nc1ccc(Cl)cc1 [Compound 10]"
  chromatographic logP: 3.44

So what does the record say about chromatographic logP for Cc1nc[nH]c1C(=O)NNC(=S)Nc1ccc(Br)cc1 [Compound 13] ?
3.64

Consider the molecule Cc1nc[nH]c1C(=O)NNC(=S)Nc1cccc(F)c1 [Compound 6] and give its measured chromatographic logP.
2.99

Recorded chromatographic logP of Cc1nc[nH]c1C(=O)NNC(=S)Nc1ccccc1Br [Compound 11] , please.
3.23

Returns the measured chromatographic logP for the input molecule. Input: Cc1nc[nH]c1C(=O)NNC(=S)Nc1ccccc1Cl [Compound 8]
3.17

Quick check: chromatographic logP of Cc1nc[nH]c1C(=O)NNC(=S)Nc1cccc(Cl)c1 [Compound 9] ?
3.51

Endpoint output: chromatographic logP of Cc1nc[nH]c1C(=O)NNC(=S)Nc1ccc(I)cc1 [Compound 16] . Value?
3.95

# chromatographic logP lookup, item Cc1nc[nH]c1C(=O)NNC(=S)Nc1ccccc1F [Compound 5]
2.8

###

Listed compounds paired with reported melting point

- smiles_data: "Cc1nc[nH]c1C(=O)NNC(=S)Nc1ccccc1Cl"
  property_measured: "melting point"
  endpoint_value: "217 to 219 °C"
- smiles_data: "Cc1nc[nH]c1C(=O)NNC(=S)Nc1ccccc1Br"
  property_measured: "melting point"
  endpoint_value: "205 to 207 °C"

melting point for `Cc1nc[nH]c1C(=O)NNC(=S)Nc1ccc(I)cc1` ?
225 to 227 °C

Need melting point, item `Cc1nc[nH]c1C(=O)NNC(=S)Nc1cccc(I)c1`
210 to 212 °C

###

Test: Cytotoxicity against L929 cells, MTT cell viability assay (ISO 10993-5:2009(E))
Type: cell-based
Conditions: mouse, L929 mouse fibroblast cells, 1000.00 µg/mL, read-out: viability of L929 cells (% of viable cells)
Excerpt: Since T. gondii is an obligate intracellular parasite that requires invasion of mammalian host cells to proliferate, compounds that inhibit parasite growth might be toxic to host cells as well. Therefore, as an initial indicator for host cell toxicity, we firstly evaluated compounds 5–16 for their ability to inhibit the growth of mouse fibroblast (L929) cells line according to the international standards: ISO 10993-5:2009(E). […]
Below is a list of entries, each paired with its recorded viability at 24 h, 1000 µg/mL value.
Answer in %, number only, no unit symbol.

- smiles_data: "Cc1nc[nH]c1C(=O)NNC(=S)Nc1ccc(Cl)cc1"
  endpoint_value: 13.6
- smiles_data: "Cc1nc[nH]c1C(=O)NNC(=S)Nc1cccc(Cl)c1"
  endpoint_value: 8.47
- smiles_data: "Cc1nc[nH]c1C(=O)NNC(=S)Nc1ccc(I)cc1"
  endpoint_value: 13.5
- smiles_data: "Cc1nc[nH]c1C(=O)NNC(=S)Nc1ccccc1F"
  endpoint_value: 45.8
- smiles_data: "Cc1nc[nH]c1C(=O)NNC(=S)Nc1ccc(F)cc1"
  endpoint_value: 48.7

Reported viability at 24 h, 1000 µg/mL for `Cc1nc[nH]c1C(=O)NNC(=S)Nc1ccccc1Cl` : what is it?
39.5

Fill blank: measured viability at 24 h, 1000 µg/mL of the compound `Cc1nc[nH]c1C(=O)NNC(=S)Nc1cccc(I)c1` is ____.
8.49

// query viability at 24 h, 1000 µg/mL value for entry `Cc1nc[nH]c1C(=O)NNC(=S)Nc1cccc(Br)c1`
7.52

What does the data say about its viability at 24 h, 1000 µg/mL? Entry: `Cc1nc[nH]c1C(=O)NNC(=S)Nc1ccccc1I`
25

Could you share which viability at 24 h, 1000 µg/mL value was measured for `Cc1nc[nH]c1C(=O)NNC(=S)Nc1ccccc1Br` ?
29.8

viability at 24 h, 1000 µg/mL for `Cc1nc[nH]c1C(=O)NNC(=S)Nc1ccc(Br)cc1` ?
30.8

I would be grateful if you could share the reported viability at 24 h, 1000 µg/mL for `Cc1nc[nH]c1C(=O)NNC(=S)Nc1cccc(F)c1` .
35.4

###

Assay: Cytotoxicity against L929 cells, MTT cell viability assay (ISO 10993-5:2009(E))
Type: cell-based
Details: mouse, L929 mouse fibroblast cells, 5.00 µg/mL, read-out: viability of L929 cells (% of viable cells)
property_measured: viability at 24 h, 5 µg/mL (%)
Field format: number, assumed %, no unit text.

- smiles_data: "Cc1nc[nH]c1C(=O)NNC(=S)Nc1ccccc1F"
  endpoint_value: 98.1
- smiles_data: "Cc1nc[nH]c1C(=O)NNC(=S)Nc1cccc(I)c1"
  endpoint_value: 96.7
- smiles_data: "Cc1nc[nH]c1C(=O)NNC(=S)Nc1cccc(Cl)c1"
  endpoint_value: 93.9
- smiles_data: "Cc1nc[nH]c1C(=O)NNC(=S)Nc1ccccc1Cl"
  endpoint_value: 89.9
- smiles_data: "Cc1nc[nH]c1C(=O)NNC(=S)Nc1cccc(F)c1"
  endpoint_value: 96.3

What measured viability at 24 h, 5 µg/mL goes with `Cc1nc[nH]c1C(=O)NNC(=S)Nc1cccc(Br)c1` ?
95.3

Dear colleague, I am looking for the recorded viability at 24 h, 5 µg/mL of the following compound: `Cc1nc[nH]c1C(=O)NNC(=S)Nc1ccc(Cl)cc1`
103

Can you look up the measured viability at 24 h, 5 µg/mL of `Cc1nc[nH]c1C(=O)NNC(=S)Nc1ccc(I)cc1` for me?
96.7

Could you share which viability at 24 h, 5 µg/mL value was measured for `Cc1nc[nH]c1C(=O)NNC(=S)Nc1ccc(Br)cc1` ?
93.5

Request the reported viability at 24 h, 5 µg/mL associated with `Cc1nc[nH]c1C(=O)NNC(=S)Nc1ccccc1I`
95.2

Given the entry `Cc1nc[nH]c1C(=O)NNC(=S)Nc1ccc(F)cc1` , report its measured viability at 24 h, 5 µg/mL.
103

Which viability at 24 h, 5 µg/mL is reported for this compound? `Cc1nc[nH]c1C(=O)NNC(=S)Nc1ccccc1Br`
94.7

###

Measured viability at 24 h, 25 µg/mL values are reported for all entries that follow.
Assay: Cytotoxicity against L929 cells, MTT cell viability assay (ISO 10993-5:2009(E))
Type: cell-based
Conditions: mouse, L929 mouse fibroblast cells, 25.00 µg/mL, read-out: viability of L929 cells (% of viable cells)
Please give a number only; it is taken to be in %.

- compound: "Cc1nc[nH]c1C(=O)NNC(=S)Nc1ccc(F)cc1 [Compound 7]"
  viability at 24 h, 25 µg/mL / %: 103

Consider now this further compound.
Returns the measured viability at 24 h, 25 µg/mL for the input compound. Input: Cc1nc[nH]c1C(=O)NNC(=S)Nc1cccc(F)c1 [Compound 6]
97.3

###

Assay: Lipophilicity by HPLC (logkw extrapolation, OECD guideline)
Type: physicochemical
Settings: Phenomenex Synergi 4 µm Polar-RP column, methanol:water, calibration with seven standards
property_measured: chromatographic logP

- smiles_data: "Cc1nc[nH]c1C(=O)NNC(=S)Nc1cccc(I)c1"
  endpoint_value: 3.98

Which chromatographic logP is listed for `Cc1nc[nH]c1C(=O)NNC(=S)Nc1ccc(F)cc1` ?
2.8

Item `Cc1nc[nH]c1C(=O)NNC(=S)Nc1cccc(Br)c1` has what recorded chromatographic logP?
3.71
